The reported numbers originate from patent US20250340631A1.

- targetDesc: T1, human CLDN18.2 (human)
- T1 construct: the HEK293 line was made with a GenScript plasmid; also called hCLDN18.2
- assayNotes: FACS on NUGC4_D8 cells
Field: label. Allowed values: criterion met (Emax (MFI) < 200000 MFI) or criterion not met (Emax (MFI) >= 200000 MFI).

Observe how each entry below is paired with its result.
INSERT INTO measurements (binder, cat) VALUES
  ('PR000400 (antibody, human IgG1, kappa, V domains shown, also called IMAB362 analogue) VH: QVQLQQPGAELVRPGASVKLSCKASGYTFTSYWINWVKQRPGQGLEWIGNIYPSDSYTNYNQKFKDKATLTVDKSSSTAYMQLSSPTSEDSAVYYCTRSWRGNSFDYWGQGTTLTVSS VL: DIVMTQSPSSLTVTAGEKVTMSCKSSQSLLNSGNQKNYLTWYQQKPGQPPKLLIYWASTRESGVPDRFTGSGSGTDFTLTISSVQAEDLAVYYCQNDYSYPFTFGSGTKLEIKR', 'criterion met'),
  ('PR004953 (antibody, V domains shown, anti-CLDN18.2 HCAb: VH fused to human IgG1 Fc, no light chain; also called R1029P024B07) VH: EVQLVESGGGVVQPGRSLRLSCAASGFTFSSYGMHWVRQAPGKGLEWVAVIGYDGRNKYYADSVKGRFTISRDNSKNTLFLQMDNLRAEDTALYYCARHFPSLPGTTDTFDIRGPGTMVTVSS', 'criterion not met'),
  ('PR004533 (antibody, V domains shown, anti-CLDN18.2 HCAb: VH fused to human IgG1 Fc, no light chain; also called R1029P021E10) VH: EVQLVESGGGLVQPGGSLRLSCAASGFTFSSYWMHWVRQVPGKGLVWVSRINSDGSRTIYADSVKGRFTISRDNAKNTLYLQMNSLRAEDTAVYYCARGEDHDILTGYPIRGQGTTVTVSS', 'criterion met');

Lab note: Emax (MFI) threshold 200000 MFI. Does this binder come in strictly under it? PR004949 (antibody, V domains shown, anti-CLDN18.2 HCAb: VH fused to human IgG1 Fc, no light chain; also called R1029P021C02) VH: EVQLVESGGGLVQPGGSLRLSCAASGFTFSAYWMHWVRQVPGRGLVWVSRINSDGSRTIYADSVKGRFTISRDNAKNTLYLQMNSLRAEDTAVYLCARGEDHDMLTGYPVRGQGTMVTVSS
criterion not met
